The reader will find reported % change of HSV-1 GFP signal values listed item by item below.
System: HSV-1 K26-GFP infected primary human skin cells
protocol-notes: % change of HSV-1 GFP signal vs untreated infected cells; higher = less antiviral inhibition
condition-set: 6.6667 µM; cell type: primary dermal fibroblasts; donor: 3; time (h post infection): 48
measured-endpoint: % change of HSV-1 GFP signal (%)

* CC(C)c1cnn2c(NCc3ccccc3-n3cccn3)nc(OC3CCCNC3)nc12 (centres undefined) | -98.3
* Nc1ccn([C@@H]2O[C@H](CO)[C@@H](O)C2(F)F)c(=O)n1 | -99.8
* O=C(/C=C\n1cnc(-c2cc(C(F)(F)F)cc(C(F)(F)F)c2)n1)NNc1ccccn1 [Verdinexor] | -34.8
* CC1(C)CC(=O)c2c(C(F)(F)F)nn(-c3ccc(C(N)=O)c(N[C@H]4CC[C@H](O)CC4)c3)c2C1 | -99.5

---

System: primary dermal fibroblasts
protocol-notes: % change in live cells vs DMSO control; higher = less cytotoxic
condition-set: 2.22222 µM; donor: 5; time (h post treatment): 48
The reader will find reported % change in live cells values listed item by item below.
measured-endpoint: % change in live cells (%)

- CC(=O)O[C@H]1C[C@H](O[C@H]2[C@@H](O)C[C@H](O[C@H]3[C@@H](O)C[C@H](O[C@H]4CC[C@@]5(C)[C@H](CC[C@@H]6[C@@H]5C[C@@H](O)[C@]5(C)[C@@H](C7=CC(=O)OC7)CC[C@]65O)C4)O[C@@H]3C)O[C@@H]2C)O[C@H](C)[C@H]1O[C@@H]1O[C@H](CO)[C@@H](O)[C@H](O)[C@H]1O [Lanatoside C]: -37.3
- CC(C)c1cnn2c(NCc3ccccc3-n3cccn3)nc(OC3CCCNC3)nc12 (stereo not given): -16.3
- O=C(/C=C\n1cnc(-c2cc(C(F)(F)F)cc(C(F)(F)F)c2)n1)NNc1ccccn1 [Verdinexor]: -15.7
- Nc1ccn([C@@H]2O[C@H](CO)[C@@H](O)C2(F)F)c(=O)n1: -26.3
- COc1ccc(-c2nc(N3CCOCC3)c3sc(CN(C)c4ncc(C(=O)NO)cn4)cc3n2)cn1 [Fimepinostat]: -56.3
- CC1(C)CC(=O)c2c(C(F)(F)F)nn(-c3ccc(C(N)=O)c(N[C@H]4CC[C@H](O)CC4)c3)c2C1: -8.67
- O=C(Nc1ccc([N+](=O)[O-])cc1Cl)c1cc(Cl)ccc1O [Niclosamide]: -2.67
- Cc1cccc(C)c1N(CC(=O)Nc1ccc(-c2ncon2)cc1)C(=O)C1CCS(=O)(=O)CC1: 0
- C=CC(=O)N1CC/C(=C\c2ccc(F)c([N+](=O)[O-])c2)C(=O)/C(=C/c2ccc(F)c([N+](=O)[O-])c2)C1: -1.67
- Cc1nc(N(C)C(=O)Cc2ccc(-c3ccccn3)cc2)sc1S(N)(=O)=O: 0.667

---

System: HSV-1 K26-GFP infected primary human skin cells
protocol-notes: % change of HSV-1 GFP signal vs untreated infected cells; higher = less antiviral inhibition
condition-set: 0.2469 µM; cell type: primary keratinocytes; donor: 4; time (h post infection): 20
The reader will find reported % change of HSV-1 GFP signal values listed item by item below.
measured-endpoint: % change of HSV-1 GFP signal (%)

• CC(C)c1cnn2c(NCc3ccccc3-n3cccn3)nc(OC3CCCNC3)nc12 (stereo not given) [LDC4297] = -35.8
• Cc1nc(N(C)C(=O)Cc2ccc(-c3ccccn3)cc2)sc1S(N)(=O)=O [Pritelivir] = -77.3
• C=CC(=O)N1CC/C(=C\c2ccc(F)c([N+](=O)[O-])c2)C(=O)/C(=C/c2ccc(F)c([N+](=O)[O-])c2)C1 [VLX1570] = -3.18
• COc1ccc(-c2nc(N3CCOCC3)c3sc(CN(C)c4ncc(C(=O)NO)cn4)cc3n2)cn1 [Fimepinostat] = -33
• Cc1cccc(C)c1N(CC(=O)Nc1ccc(-c2ncon2)cc1)C(=O)C1CCS(=O)(=O)CC1 [Amenamevir] = -80.2
• O=C(Nc1ccc([N+](=O)[O-])cc1Cl)c1cc(Cl)ccc1O [Niclosamide] = -9.22
• CC1(C)CC(=O)c2c(C(F)(F)F)nn(-c3ccc(C(N)=O)c(N[C@H]4CC[C@H](O)CC4)c3)c2C1 [SNX-2112] = -98.2
• O=C(/C=C\n1cnc(-c2cc(C(F)(F)F)cc(C(F)(F)F)c2)n1)NNc1ccccn1 [Verdinexor] = -22.4
• CC(=O)O[C@H]1C[C@H](O[C@H]2[C@@H](O)C[C@H](O[C@H]3[C@@H](O)C[C@H](O[C@H]4CC[C@@]5(C)[C@H](CC[C@@H]6[C@@H]5C[C@@H](O)[C@]5(C)[C@@H](C7=CC(=O)OC7)CC[C@]65O)C4)O[C@@H]3C)O[C@@H]2C)O[C@H](C)[C@H]1O[C@@H]1O[C@H](CO)[C@@H](O)[C@H](O)[C@H]1O [Lanatoside C] = -79.3
• Nc1ccn([C@@H]2O[C@H](CO)[C@@H](O)C2(F)F)c(=O)n1 [Gemcitabine] = -86.4

---

Test system: HSV-1 K26-GFP infected 3D skin equivalent
protocol-notes: % change of tdTomato fibroblast signal relative to infected DMSO control; higher = higher signal (negative = inhibition / toxicity)
condition-set: 0.37037 µM; time (h post infection): 48; model: submerged
The reader will find reported % change of tdTomato fibroblast signal values listed item by item below.
measured-endpoint: % change of tdTomato fibroblast signal (%)

- CC(=O)O[C@H]1C[C@H](O[C@H]2[C@@H](O)C[C@H](O[C@H]3[C@@H](O)C[C@H](O[C@H]4CC[C@@]5(C)[C@H](CC[C@@H]6[C@@H]5C[C@@H](O)[C@]5(C)[C@@H](C7=CC(=O)OC7)CC[C@]65O)C4)O[C@@H]3C)O[C@@H]2C)O[C@H](C)[C@H]1O[C@@H]1O[C@H](CO)[C@@H](O)[C@H](O)[C@H]1O [Lanatoside C]: -23.6
- O=C(Nc1ccc([N+](=O)[O-])cc1Cl)c1cc(Cl)ccc1O [Niclosamide]: -34
- COc1ccc(-c2nc(N3CCOCC3)c3sc(CN(C)c4ncc(C(=O)NO)cn4)cc3n2)cn1 [Fimepinostat]: 12.7
- CC1(C)CC(=O)c2c(C(F)(F)F)nn(-c3ccc(C(N)=O)c(N[C@H]4CC[C@H](O)CC4)c3)c2C1 [SNX-2112]: -23.3
- CC(C)c1cnn2c(NCc3ccccc3-n3cccn3)nc(OC3CCCNC3)nc12 (stereo unspecified) [LDC4297]: -5.4
- Nc1ccn([C@@H]2O[C@H](CO)[C@@H](O)C2(F)F)c(=O)n1 [Gemcitabine]: -13.9

---

The reader will find reported % change in live cells values listed item by item below.
Test system: primary keratinocytes
protocol-notes: % change in live cells vs DMSO control; higher = less cytotoxic
condition-set: 0.082305 µM; donor: 3; time (h post treatment): 20
measured-endpoint: % change in live cells

• Nc1ccn([C@@H]2O[C@H](CO)[C@@H](O)C2(F)F)c(=O)n1 = -37.7%
• O=C(/C=C\n1cnc(-c2cc(C(F)(F)F)cc(C(F)(F)F)c2)n1)NNc1ccccn1 [Verdinexor] = -11%
• CC(C)c1cnn2c(NCc3ccccc3-n3cccn3)nc(OC3CCCNC3)nc12 (centres undefined) = -12%
• CC(=O)O[C@H]1C[C@H](O[C@H]2[C@@H](O)C[C@H](O[C@H]3[C@@H](O)C[C@H](O[C@H]4CC[C@@]5(C)[C@H](CC[C@@H]6[C@@H]5C[C@@H](O)[C@]5(C)[C@@H](C7=CC(=O)OC7)CC[C@]65O)C4)O[C@@H]3C)O[C@@H]2C)O[C@H](C)[C@H]1O[C@@H]1O[C@H](CO)[C@@H](O)[C@H](O)[C@H]1O [Lanatoside C] = -27%

---

The reader will find reported % change of HSV-1 GFP signal values listed item by item below.
Test system: HSV-1 K26-GFP infected primary human skin cells
protocol-notes: % change of HSV-1 GFP signal vs untreated infected cells; higher = less antiviral inhibition
condition-set: 6.6667 µM; cell type: primary dermal fibroblasts; donor: 3; time (h post infection): 48
measured-endpoint: % change of HSV-1 GFP signal (%)

• COc1ccc(-c2nc(N3CCOCC3)c3sc(CN(C)c4ncc(C(=O)NO)cn4)cc3n2)cn1 [Fimepinostat] = 11.3
• Cc1cccc(C)c1N(CC(=O)Nc1ccc(-c2ncon2)cc1)C(=O)C1CCS(=O)(=O)CC1 = -99.5
• O=C(Nc1ccc([N+](=O)[O-])cc1Cl)c1cc(Cl)ccc1O [Niclosamide] = -99.6
• Cc1nc(N(C)C(=O)Cc2ccc(-c3ccccn3)cc2)sc1S(N)(=O)=O = -93.7

---

Test system: HSV-1 K26-GFP infected primary human skin cells
protocol-notes: % change of HSV-1 GFP signal vs untreated infected cells; higher = less antiviral inhibition
condition-set: 0.0274 µM; cell type: primary keratinocytes; donor: 5; time (h post infection): 20
The reader will find reported % change of HSV-1 GFP signal values listed item by item below.
measured-endpoint: % change of HSV-1 GFP signal (%)

- Cc1cccc(C)c1N(CC(=O)Nc1ccc(-c2ncon2)cc1)C(=O)C1CCS(=O)(=O)CC1 [Amenamevir]: -12.8
- O=C(/C=C\n1cnc(-c2cc(C(F)(F)F)cc(C(F)(F)F)c2)n1)NNc1ccccn1 [Verdinexor]: 6.11
- COc1ccc(-c2nc(N3CCOCC3)c3sc(CN(C)c4ncc(C(=O)NO)cn4)cc3n2)cn1 [Fimepinostat]: -15.1
- C=CC(=O)N1CC/C(=C\c2ccc(F)c([N+](=O)[O-])c2)C(=O)/C(=C/c2ccc(F)c([N+](=O)[O-])c2)C1 [VLX1570]: 7.82
- CC(C)c1cnn2c(NCc3ccccc3-n3cccn3)nc(OC3CCCNC3)nc12 (stereo unspecified) [LDC4297]: 1.09
- CC(=O)O[C@H]1C[C@H](O[C@H]2[C@@H](O)C[C@H](O[C@H]3[C@@H](O)C[C@H](O[C@H]4CC[C@@]5(C)[C@H](CC[C@@H]6[C@@H]5C[C@@H](O)[C@]5(C)[C@@H](C7=CC(=O)OC7)CC[C@]65O)C4)O[C@@H]3C)O[C@@H]2C)O[C@H](C)[C@H]1O[C@@H]1O[C@H](CO)[C@@H](O)[C@H](O)[C@H]1O [Lanatoside C]: -3.35

Ref: the supplement of paper PMC12533247
